test-system: Proteasomal ubiquitin receptor ADRM1/Bromodomain-containing protein 4 (Homo sapiens, UniProt O60885+Q16186)
assay-method-text: BYETAC activity at 26S proteasome subunit Rpn13/BRD4 in human Ramos cells assessed as induction of BRD4 degradation by measuring remaining activity at 500 nM incubated for 18 hrs by Western blot analysis (reference value: 100 %)
Format: cell-based
result-type: Activity (%)
Value expressed in %; do not type the unit.

Past entries and their recorded results:
{"molecule": "Cc1sc2c(c1C)C(c1ccc(Cl)cc1)=N[C@@H](CC(=O)NCCOCCOCCOCCOCCNC(=O)CC1Sc3nnc(Cc4ccc(Br)cc4)n3N=C1c1ccc(Cl)cc1)c1nnc(C)n1-2 (some centres undefined)", "result-number": 33}
{"molecule": "Cc1sc2c(c1C)C(c1ccc(Cl)cc1)=N[C@@H](CC(=O)NCCOCCOCCOCCOCCOCCNC(=O)CC1Sc3nnc(Cc4ccc(Br)cc4)n3N=C1c1ccc(Cl)cc1)c1nnc(C)n1-2 (some centres undefined)", "result-number": 60}
{"molecule": "Cc1sc2c(c1C)C(c1ccc(Cl)cc1)=N[C@@H](CC(=O)NCCOCCOCCOCCOCCOCCOCCOCCNC(=O)CC1Sc3nnc(Cc4ccc(Br)cc4)n3N=C1c1ccc(Cl)cc1)c1nnc(C)n1-2 (some centres undefined)", "result-number": 80}

Next molecule, Activity to be filled in.
Ask: Which Activity value belongs to Cc1sc2c(c1C)C(c1ccc(Cl)cc1)=N[C@@H](CC(=O)NCCOCCOCCOCCNC(=O)CC1Sc3nnc(Cc4ccc(Br)cc4)n3N=C1c1ccc(Cl)cc1)c1nnc(C)n1-2 (some centres undefined) ?
Result: 35
